Hello, the source for this data is ChEMBL document CHEMBL1821585, in case you need it.

# Assayed System: Cannabinoid receptor 2 (Homo sapiens)
# Sequence (P34972 whole entry): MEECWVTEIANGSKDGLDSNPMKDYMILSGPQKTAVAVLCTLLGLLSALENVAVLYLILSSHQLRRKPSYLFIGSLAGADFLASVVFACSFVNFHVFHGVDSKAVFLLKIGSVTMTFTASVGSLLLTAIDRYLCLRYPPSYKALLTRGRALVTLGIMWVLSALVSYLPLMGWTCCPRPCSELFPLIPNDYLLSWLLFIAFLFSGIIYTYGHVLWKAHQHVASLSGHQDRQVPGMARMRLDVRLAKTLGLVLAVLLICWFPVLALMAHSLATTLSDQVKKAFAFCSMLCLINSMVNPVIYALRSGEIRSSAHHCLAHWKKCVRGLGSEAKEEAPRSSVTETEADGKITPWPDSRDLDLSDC
# Measurement Description: Binding affinity to CB2 receptor
Parameter Measured: pKi
Lab note: report pKi as minus log10 of the concentration in molar units, number only.

Data request: Look up pKi with Cannabinoid receptor 2 (Homo sapiens) for this molecule: CCCCCOc1c(OC)ccc2cc(C(=O)NCCc3ccncc3)c(=O)[nH]c12
Data returned: 11.00

Data request: Input CCCCCc1cc2cc(C(=O)NCCc3ccc(F)cc3)c(=O)n(C)c2c(O)c1OC
Data returned: 10.37

Data request: Could you do the same for COc1ccc2c(c1)c(CCN1CCOCC1)c(C)n2C(=O)c1cccc(Cl)c1Cl , please?
Data returned: 7.85

Data request: Same lookup for CCCCCc1cc2cc(C(=O)NCCc3ccc(F)cc3)c(=O)[nH]c2c(O)c1OC , please.
Data returned: 10.44

Data request: Repeat with CCCCCc1cc2cc(C(=O)OC)c(=O)[nH]c2c(O)c1OC
Data returned: 10.85

Data request: CCCCOc1c(OC)ccc2cc(C(=O)O)c(=O)[nH]c12 , same question.
Data returned: 10.49

Data request: Item: CCCCCCC(C)(C)c1cc(OC)c(C2CCCC(C)(O)C2)c(OC)c1 (stereo not drawn)
Data returned: 7.64

Data request: Also, CCCCOc1c(OC)ccc2cc(C(=O)NCCc3ccc(N)cc3)c(=O)[nH]c12 please.
Data returned: 7.65
